targetDesc: human P2X2/3 receptors (Homo sapiens, UniProt P56373+Q9UBL9)
Construct: expressed in transfected cells; host or cells: human astrocytoma 1321N1 (1312N1 [sic])
Sequence (P56373 1-397): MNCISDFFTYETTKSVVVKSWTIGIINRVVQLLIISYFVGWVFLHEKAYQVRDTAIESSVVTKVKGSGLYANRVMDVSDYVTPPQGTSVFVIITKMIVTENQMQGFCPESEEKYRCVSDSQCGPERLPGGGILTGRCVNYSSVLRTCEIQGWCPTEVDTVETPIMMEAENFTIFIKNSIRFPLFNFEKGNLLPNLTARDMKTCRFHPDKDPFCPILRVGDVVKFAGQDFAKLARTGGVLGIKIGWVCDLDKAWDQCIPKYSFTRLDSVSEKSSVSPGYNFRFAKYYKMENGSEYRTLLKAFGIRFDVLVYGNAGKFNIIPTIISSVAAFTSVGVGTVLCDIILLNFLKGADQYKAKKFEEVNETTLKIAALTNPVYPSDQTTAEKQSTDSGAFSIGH
Sequence (Q9UBL9 1-471): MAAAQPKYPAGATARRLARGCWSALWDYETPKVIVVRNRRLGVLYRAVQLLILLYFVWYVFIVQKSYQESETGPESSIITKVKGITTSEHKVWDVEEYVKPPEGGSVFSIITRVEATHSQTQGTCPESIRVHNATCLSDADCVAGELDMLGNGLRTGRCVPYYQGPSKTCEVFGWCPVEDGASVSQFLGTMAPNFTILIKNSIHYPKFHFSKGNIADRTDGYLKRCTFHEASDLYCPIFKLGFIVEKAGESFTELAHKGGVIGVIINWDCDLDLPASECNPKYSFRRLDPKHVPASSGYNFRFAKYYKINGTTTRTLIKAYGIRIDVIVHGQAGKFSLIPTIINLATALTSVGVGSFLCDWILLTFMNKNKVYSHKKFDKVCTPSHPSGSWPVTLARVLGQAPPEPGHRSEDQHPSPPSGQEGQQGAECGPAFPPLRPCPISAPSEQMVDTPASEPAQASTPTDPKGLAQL
protocolNotes: Intracellular calcium measurement, antagonist activity at human P2X2/3 receptors (hP2X23 1321N1), Fluo8
Type: cell-based
conditionSummary: column 4); 1321N1 cells, human P2X2/3, Fluo8, agonist ATP at EC50; read-out: 4) hP2X2/3 IC50 [nM] (1321N1)
measurementType: IC50 (nM)

CCc1cc2n(CC(=O)Nc3ccc(F)cn3)c3c(c(=O)n2n1)CN(C[C@H]1CCCO1)C3=O [Example 73]	9500

I: CC(C)(C)c1cc2n(CC(=O)Nc3ccc(F)cn3)c3c(c(=O)n2n1)CN(CCN1CCOCC1)C3=O [Example 138]
II: CCOC(=O)c1cc2n(CC(=O)Nc3ccc(F)cn3)c3c(c(=O)n2n1)CN(C(C)C)C3=O [Example 70]
(Q) Task for the reader: decide whether I or II has the larger IC50. # answer = label of selected item
(A) I
(I: 9150 nM, II: 1800 nM)
